Values were extracted from paper PMC10397247.

Please provide measured interaction score for the entries that follow.
Molecular target: T1, P9bHq
T1 chain: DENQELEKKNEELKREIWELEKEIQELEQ
Assay: two-hybrid library CCNG1;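 note: natural log of median RNA to DNA barcode read ratio; higher means stronger binding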

// query Can you share its interaction score? I mean this binder: DKIQELKKENEELERKIWELKKENQELEQ [P8bHq]
// result -1.36

// query Can you share its interaction score? I mean this binder: DEIQELEKENEELERENWELEKEIQELEQ [P1bHq]
// result -1.78

// query Can you share its interaction score? I mean this binder: DKIQELKKKIEELKRENWELEKENQELEQ [P4bHq]
// result -0.875

// query Can you share its interaction score? I mean this binder: DKNQELKKKIEELKRKIWELKKENQELEQ [P12bHq]
// result 1.15

// query Can you share its interaction score? I mean this binder: DKIQELKKKNEELKRKNWELKKKIQELKQ [P2bHq]
// result -1.74

// query Can you share its interaction score? I mean this binder: DEIQELEKKNEELKREIWELEKKNQELKQ [P7bHq]
// result 0.211

// query Can you share its interaction score? I mean this binder: DKNQELKKENEELERKIWELKKKIQELKQ [P10bHq]
// result 1
